# credit: ChEMBL document CHEMBL1136246

Exercise: for every item that follows, state its recorded EC50.
Tested on: Ramos
test.details: Lymphotoxic activity against immortalized Ramos B cells in culture
Format: functional, cell-based
experimental.context: Homo sapiens
# output: bare number, implied unit µM

Prompt: Name the reported EC50 value associated with the compound CN1C(=O)C(Cc2ccc(-c3ccccc3)cc2)N=C(c2ccc(O)cc2)c2cc(Cl)ccc21 (stereo unspecified)
Response: 7

Prompt: Another compound to check: CN1C(=O)C(Cc2cnc3ccccc3c2)N=C(c2ccc(O)cc2)c2cc(Cl)ccc21 (stereo unspecified)
Response: 11

Prompt: Another compound to check: CN1C(=O)C(Cc2cccc(O)c2)N=C(c2ccc(O)cc2)c2cc(Cl)ccc21 (stereo unspecified)
Response: 22

Prompt: Another compound to check: CN1C(=O)C(Cc2cc3ccccc3cn2)N=C(c2ccc(O)cc2)c2cc(Cl)ccc21 (stereo unspecified)
Response: 10

Prompt: Another compound to check: CN1C(=O)C(Cc2cccc3ccccc23)N=C(c2ccc(O)cc2)c2cc(Cl)ccc21 (stereo unspecified)
Response: 5

Prompt: Another compound to check: Cc1ccc(CC2N=C(c3ccc(O)cc3)c3cc(Cl)ccc3N(C)C2=O)cc1C (stereo unspecified)
Response: 7

Prompt: Another compound to check: CN1C(=O)C(Cc2cccc(-c3ccccc3)c2)N=C(c2ccc(O)cc2)c2cc(Cl)ccc21 (stereo unspecified)
Response: 4

Prompt: Another compound to check: CN1C(=O)C(Cc2ccc3ncccc3c2)N=C(c2ccc(O)cc2)c2cc(Cl)ccc21 (stereo unspecified)
Response: 13

Prompt: Another compound to check: CN1C(=O)C(Cc2ccc3ccccc3c2)N=C(c2cccc(O)c2)c2cc(Cl)ccc21 (stereo unspecified)
Response: 6

Prompt: Another compound to check: CN1C(=O)C(Cc2ccc(C(C)(C)C)cc2)N=C(c2ccc(O)cc2)c2cc(Cl)ccc21 (stereo unspecified)
Response: 3

Prompt: Another compound to check: CN1C(=O)C(Cc2ccccc2)N=C(c2ccc(O)cc2)c2cc(Cl)ccc21 (stereo unspecified)
Response: 12

Prompt: Another compound to check: Cc1cc(C2=NC(Cc3ccc4ccccc4c3)C(=O)N(C)c3ccc(Cl)cc32)ccc1O (stereo unspecified)
Response: 3

Prompt: Another compound to check: CN1C(=O)C(Cc2ccc(OC(F)(F)F)cc2)N=C(c2ccc(O)cc2)c2cc(Cl)ccc21 (stereo unspecified)
Response: 30

Prompt: Another compound to check: CN1C(=O)C(Cc2ccc(F)c(F)c2)N=C(c2ccc(O)cc2)c2cc(Cl)ccc21 (stereo unspecified)
Response: 10

Prompt: Another compound to check: Cc1ccc(C)c(CC2N=C(c3ccc(O)cc3)c3cc(Cl)ccc3N(C)C2=O)c1 (stereo unspecified)
Response: 7

* * *

Exercise: for every item that follows, state its recorded EC50.
Tested on: Ramos
test.details: Lymphotoxic activity against immortalized Ramos B cells in culture
Type: functional, cell-based
experimental.context: Homo sapiens

Prompt: Name the reported EC50 value associated with the compound CN1C(=O)C(Cc2ccc3ccccc3c2)N=C(c2ccc(N=[N+]=[N-])cc2)c2cc(Cl)ccc21 (stereo unspecified)
Response: > 80 µM

Prompt: Another compound to check: COc1ccc(C2=NC(Cc3ccc4ccccc4c3)C(=O)N(C)c3ccc(Cl)cc32)cc1 (stereo unspecified)
Response: > 80 µM

Prompt: Another compound to check: CCC(C)N(C)C(=O)c1cc2ccccc2c(-c2ccccc2Cl)n1 (stereo unspecified)
Response: > 80 µM

Prompt: Another compound to check: CN1C(=O)CN=C(c2ccccc2)c2cc(Cl)ccc21
Response: > 80 µM

Prompt: Another compound to check: CN1C(=O)C(Cc2ccc3ccccc3c2)N=C(c2ccc(Cl)cc2)c2cc(Cl)ccc21 (stereo unspecified)
Response: > 80 µM

Prompt: Another compound to check: CN1C(=O)CN=C(c2ccc(Cl)cc2)c2cc(Cl)ccc21
Response: > 80 µM
